B1: TPR t1 (parent)
chain: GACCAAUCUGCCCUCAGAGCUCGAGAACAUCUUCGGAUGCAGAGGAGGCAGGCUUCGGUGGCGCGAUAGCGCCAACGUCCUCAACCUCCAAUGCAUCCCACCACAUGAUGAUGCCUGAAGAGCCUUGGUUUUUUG

variants of: B1; experiment: polymerase ribozyme fitness, log enrichment relative to wild type (log ratio); higher = more active; in vitro selection for triplet polymerase activity
READOUT_NAME: polymerase ribozyme fitness (log ratio)
Give the figure only, with no unit attached.

Field: example entries. Status: answers known.
C8G C49G G71A U87A C124U	0.992
C56A G93C	-1.88
C4U A41U	-1.8
C73U G110U	-1.17
A18C G63C C88U C97G C102U C123U	-6.68
A43G U54G C89G C94G	-3.3
G60U G61U C104A	-5.16
A6C C11U C49A C101A	-2.17

Can you look up the measured polymerase ribozyme fitness (log ratio) of G61A U133A for me?
-0.418

Which polymerase ribozyme fitness (log ratio) reading was recorded for the variant G23A G77A ?
-6.34

Which measured polymerase ribozyme fitness (log ratio) value corresponds to G10A C12U U112A ?
1.73
